# System: MCF7
# ASSAY_NOTES: Antitumor activity against human MCF7 cells after 48 hours hrs by SRB assay
# Assay type: functional, cell-based
# MEASUREMENT_PARAMETERS: MCF7, 48 h
MEASUREMENT_LABEL: IC50 (µM)

Please review the following examples before continuing.
COc1cc(NC(C)CCCN2C(=O)CN(C(=O)[C@H](C)N)C2(C)C)c2ncccc2c1 (some centres not stated); 20
COc1cc(NC(C)CCCNC(C)=O)c2ncccc2c1 (configuration not stated); 57.3
COc1cc(NC(C)CCCN2C(=O)[C@H](C)NC2(C)C)c2ncccc2c1 (some centres not stated); 42.3

[a] COc1cc(NC(C)CCCNC(=O)CN2C(=O)[C@H](C)NC23CCCCC3)c2ncccc2c1 (some centres not stated)
[b] COc1cc(NC(C)CCCNC(=O)C2CCCN2C(=O)[C@@H](C)N)c2ncccc2c1 (some centres not stated)
Of the pair a and b , name the member with the lesser recorded IC50. Answer with the label corresponding to your selection.
b
(b: 15 µM, a: 27 µM)

[P] COc1cc(NC(C)CCCNC(=O)CNC(=O)[C@H](C)N)c2ncccc2c1 (some centres not stated)
[Q] FC(F)(F)c1ccc2c(Cl)ccnc2c1
Between the two listed entries P and Q , which has its IC50 at the higher number? Answer with the label corresponding to your selection.
Q
(Q: 63 µM, P: 21.3 µM)

[I] COc1cc(NC(C)CCCN)c2ncccc2c1 (configuration not stated)
[II] COc1cc(NC(C)CCCNC(=O)CN2C(=O)[C@H](C)NC2(C)C)c2ncccc2c1 (some centres not stated)
[III] COc1cc(N)c2ncccc2c1
Falling order of IC50, please. Hello, could you send the labels back in the order asked? Thank you.
III, II, I
